Target: Amine oxidase [flavin-containing] A (Homo sapiens)
Sequence (P21397 whole entry): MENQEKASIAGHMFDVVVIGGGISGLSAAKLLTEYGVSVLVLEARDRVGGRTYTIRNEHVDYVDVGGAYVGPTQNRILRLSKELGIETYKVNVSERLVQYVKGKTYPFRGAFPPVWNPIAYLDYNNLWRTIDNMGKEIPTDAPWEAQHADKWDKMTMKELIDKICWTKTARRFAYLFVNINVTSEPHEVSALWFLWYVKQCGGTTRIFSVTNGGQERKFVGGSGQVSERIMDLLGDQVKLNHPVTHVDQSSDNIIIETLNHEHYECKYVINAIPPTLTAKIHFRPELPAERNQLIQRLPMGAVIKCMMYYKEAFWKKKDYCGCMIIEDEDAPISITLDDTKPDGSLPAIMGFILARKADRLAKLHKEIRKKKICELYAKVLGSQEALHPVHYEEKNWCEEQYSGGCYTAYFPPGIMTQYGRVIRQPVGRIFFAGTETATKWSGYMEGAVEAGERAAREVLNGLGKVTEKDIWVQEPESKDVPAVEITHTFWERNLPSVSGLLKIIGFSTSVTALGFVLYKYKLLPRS
Assay: Inhibition of human recombinant MAO-A at 1 uM using tyramine as substrate preincubated with enzyme for 30 mins followed by incubation with substrate for 30 mins by Amplex Red reagent based fluorometric method relative to control
Settings: 0.5 h, time 60 min
measured-attribute: inhibition at 1 µM (%)

C#CCN(C)CCCOc1ccc(Cl)cc1Cl	79.1
CCCNc1nnc(SCC(=O)N(Cc2cccc([N+](=O)[O-])c2)c2ccc(F)cc2)s1	62.3
CCCCNc1nnc(SCC(=O)N(Cc2cccc([N+](=O)[O-])c2)c2ccc(F)cc2)s1	47.3
C=CCNc1nnc(SCC(=O)N(Cc2cccc([N+](=O)[O-])c2)c2ccc(F)cc2)s1	56.5

---

Molecular target: Amine oxidase [flavin-containing] A (Homo sapiens, UniProt P21397)
Experiment: Competitive inhibition of human recombinant MAO-A using tyramine as substrate preincubated with enzyme for 30 mins followed by substrate addition and measured for 30 mins by Lineweaver-burk plot analysis
measured-attribute: Ki (nM)
// note: answer is a bare numeric in nM

[ask] Supply Ki value. Item: COCCNc1nnc(SCC(=O)N(Cc2cccc([N+](=O)[O-])c2)c2ccc(F)cc2)s1
[reply] 33

---

Target: Amine oxidase [flavin-containing] B (Homo sapiens)
Sequence (P27338 whole entry): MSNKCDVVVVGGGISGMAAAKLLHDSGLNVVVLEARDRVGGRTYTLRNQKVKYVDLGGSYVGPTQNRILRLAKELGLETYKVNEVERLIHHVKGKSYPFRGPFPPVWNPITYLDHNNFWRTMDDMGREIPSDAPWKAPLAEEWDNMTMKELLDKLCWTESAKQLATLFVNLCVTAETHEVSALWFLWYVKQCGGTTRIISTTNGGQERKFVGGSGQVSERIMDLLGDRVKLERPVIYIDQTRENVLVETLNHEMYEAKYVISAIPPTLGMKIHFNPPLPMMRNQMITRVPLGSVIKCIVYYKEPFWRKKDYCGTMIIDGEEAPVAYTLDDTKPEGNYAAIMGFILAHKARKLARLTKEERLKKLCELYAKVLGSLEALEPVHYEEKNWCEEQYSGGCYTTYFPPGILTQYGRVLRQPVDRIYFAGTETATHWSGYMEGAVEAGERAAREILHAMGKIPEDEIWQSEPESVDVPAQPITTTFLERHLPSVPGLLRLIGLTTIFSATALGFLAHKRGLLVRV
Assay: Inhibition of human recombinant MAO-B at 1 mM using tyramine as substrate preincubated with enzyme for 30 mins followed by incubation with substrate for 30 mins by Amplex Red reagent based fluorometric method relative to control
Details: 0.5 h, read-out: INH
measured-attribute: inhibition at 1000 µM (%)

C=CCNc1nnc(SCC(=O)N(Cc2cccc([N+](=O)[O-])c2)c2ccc(F)cc2)s1	38.1
Cc1ccc(Nc2nnc(SCC(=O)N(Cc3cccc([N+](=O)[O-])c3)c3ccc(F)cc3)s2)cc1	37.9
CC(C)Nc1nnc(SCC(=O)N(Cc2cccc([N+](=O)[O-])c2)c2ccc(F)cc2)s1	36
COCCNc1nnc(SCC(=O)N(Cc2cccc([N+](=O)[O-])c2)c2ccc(F)cc2)s1	38.6
CCCCNc1nnc(SCC(=O)N(Cc2cccc([N+](=O)[O-])c2)c2ccc(F)cc2)s1	40.6
CCNc1nnc(SCC(=O)N(Cc2cccc([N+](=O)[O-])c2)c2ccc(F)cc2)s1	41.3
CCCNc1nnc(SCC(=O)N(Cc2cccc([N+](=O)[O-])c2)c2ccc(F)cc2)s1	42.7
O=C(CSc1nnc(Nc2ccccc2)s1)N(Cc1cccc([N+](=O)[O-])c1)c1ccc(F)cc1	43.1
CC(C)CNc1nnc(SCC(=O)N(Cc2cccc([N+](=O)[O-])c2)c2ccc(F)cc2)s1	36
